testTarget: UniProtKB P08235
Sequence (P08235 whole entry): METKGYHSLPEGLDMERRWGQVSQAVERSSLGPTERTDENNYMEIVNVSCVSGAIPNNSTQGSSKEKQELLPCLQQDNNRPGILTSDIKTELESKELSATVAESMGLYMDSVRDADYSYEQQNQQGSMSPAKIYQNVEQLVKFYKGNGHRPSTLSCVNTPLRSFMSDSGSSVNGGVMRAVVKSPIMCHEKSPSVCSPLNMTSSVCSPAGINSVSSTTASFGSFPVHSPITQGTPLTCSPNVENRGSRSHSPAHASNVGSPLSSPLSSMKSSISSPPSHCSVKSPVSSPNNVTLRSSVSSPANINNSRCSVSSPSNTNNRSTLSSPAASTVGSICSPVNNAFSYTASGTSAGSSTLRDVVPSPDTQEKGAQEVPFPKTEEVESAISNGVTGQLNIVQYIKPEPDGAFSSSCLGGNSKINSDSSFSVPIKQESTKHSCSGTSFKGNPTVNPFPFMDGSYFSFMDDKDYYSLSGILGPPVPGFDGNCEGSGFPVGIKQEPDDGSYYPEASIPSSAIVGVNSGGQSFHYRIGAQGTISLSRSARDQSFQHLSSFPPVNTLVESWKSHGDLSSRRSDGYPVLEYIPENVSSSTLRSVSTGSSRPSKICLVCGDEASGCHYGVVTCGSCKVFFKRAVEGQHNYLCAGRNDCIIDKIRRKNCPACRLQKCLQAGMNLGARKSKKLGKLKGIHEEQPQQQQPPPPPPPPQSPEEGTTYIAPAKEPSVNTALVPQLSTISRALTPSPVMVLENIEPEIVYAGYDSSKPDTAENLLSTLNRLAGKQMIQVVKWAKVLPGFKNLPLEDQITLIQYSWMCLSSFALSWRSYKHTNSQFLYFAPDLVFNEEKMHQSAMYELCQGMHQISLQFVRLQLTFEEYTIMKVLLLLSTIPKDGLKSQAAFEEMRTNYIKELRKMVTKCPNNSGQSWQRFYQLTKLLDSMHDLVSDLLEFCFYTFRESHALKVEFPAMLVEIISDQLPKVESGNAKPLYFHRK
pIC50: −log10 of the molar value.
The entries below come with measured pIC50 values attached.
quantityMeasured: pIC50

smilesData	testTarget	quantityMeasured	limitOperator	value
CNC(=O)C[C@H]1COc2cc(Cl)cc(C)c2N1C(=O)c1ccc2c(c1)NC(=O)CO2	UniProtKB P08235	pIC50	=	5.70
CNC(=O)C[C@H]1COc2cc(F)c(OC(C)C)cc2N1C(=O)c1ccc2c(c1)NC(=O)CO2	UniProtKB P08235	pIC50	=	6.70
C[C@H]1CCc2cc(F)ccc2N1C(=O)c1ccc2c(c1)NC(=O)CO2	UniProtKB P08235	pIC50	=	6.10
CNC(=O)C[C@H]1COc2cc(C)ccc2N1C(=O)c1ccc2c(c1)NC(=O)CO2	UniProtKB P08235	pIC50	=	7.00
CNC(=O)C[C@H]1COc2cc(F)c(CC(C)C)cc2N1C(=O)c1ccnc(NC(N)=O)c1	UniProtKB P08235	pIC50	=	7.00
COC(=O)C[C@H]1COc2cc(F)ccc2N1C(=O)c1ccc2c(c1)NC(=O)CO2	UniProtKB P08235	pIC50	=	6.50
CNC(=O)C[C@H]1CCc2cc(F)ccc2N1C(=O)c1ccc2c(c1)NC(=O)CO2	UniProtKB P08235	pIC50	=	5.70
CNC(=O)C[C@H]1COc2cc(C#N)ccc2N1C(=O)c1ccc2c(c1)NC(=O)CO2	UniProtKB P08235	pIC50	=	5.20
O=C1COc2ccc(C(=O)N3c4cc(CC5CCCCC5)c(F)cc4OC[C@@H]3CCO)cc2N1	UniProtKB P08235	pIC50	=	6.60
NCC[C@H]1COc2cc(F)ccc2N1C(=O)c1ccc2c(c1)NC(=O)CO2	UniProtKB P08235	pIC50	<	5.00

---

measurementDescription: Oral bioavailability in Sprague-Dawley rat at 3 mg/kg by LC-MS/MS analysis
Assay type: ADME, organism-based
conditionLabel: in vivo

smilesData	bioavailability (%)
C[C@H]1COc2cc(F)ccc2N1C(=O)c1ccc2c(c1)NC(=O)CO2	76

---

testTarget: Progesterone receptor (Homo sapiens)
Sequence (P06401 whole entry, the tested form may be a part): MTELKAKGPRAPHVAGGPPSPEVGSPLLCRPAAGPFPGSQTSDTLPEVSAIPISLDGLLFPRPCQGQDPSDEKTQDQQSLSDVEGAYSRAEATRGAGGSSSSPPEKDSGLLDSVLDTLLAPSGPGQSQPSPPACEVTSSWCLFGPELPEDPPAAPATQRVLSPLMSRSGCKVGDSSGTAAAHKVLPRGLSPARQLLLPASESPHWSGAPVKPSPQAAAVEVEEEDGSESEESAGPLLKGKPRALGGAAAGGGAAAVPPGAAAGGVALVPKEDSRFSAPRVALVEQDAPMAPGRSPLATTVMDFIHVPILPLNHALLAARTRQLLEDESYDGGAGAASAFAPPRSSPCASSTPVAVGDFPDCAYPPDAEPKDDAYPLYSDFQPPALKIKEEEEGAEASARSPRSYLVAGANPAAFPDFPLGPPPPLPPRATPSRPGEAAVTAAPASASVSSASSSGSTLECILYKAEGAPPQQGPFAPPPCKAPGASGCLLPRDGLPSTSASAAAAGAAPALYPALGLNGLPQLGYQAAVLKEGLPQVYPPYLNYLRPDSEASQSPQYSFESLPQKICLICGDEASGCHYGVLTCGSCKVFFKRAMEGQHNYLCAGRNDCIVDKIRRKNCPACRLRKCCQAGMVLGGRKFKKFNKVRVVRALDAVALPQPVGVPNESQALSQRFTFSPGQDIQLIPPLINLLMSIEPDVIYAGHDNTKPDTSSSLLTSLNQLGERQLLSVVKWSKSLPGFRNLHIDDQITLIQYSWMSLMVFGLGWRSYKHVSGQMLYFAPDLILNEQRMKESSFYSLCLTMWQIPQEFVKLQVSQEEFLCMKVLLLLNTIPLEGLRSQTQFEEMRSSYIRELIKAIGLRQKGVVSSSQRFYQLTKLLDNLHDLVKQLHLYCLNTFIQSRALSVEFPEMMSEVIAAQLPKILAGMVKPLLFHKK
measurementDescription: Binding affinity to recombinant human progesterone receptor LBD by fluormone PL red-fluorescence polarization assay
quantityMeasured: Ki

smilesData	value
C[C@@H]1COc2cc(F)ccc2N1C(=O)c1ccc2c(c1)NC(=O)CO2	> 50.1 µM
C[C@H]1COc2cccnc2N1C(=O)c1ccc2c(c1)NC(=O)CO2	> 50.1 µM
O=C1COc2ccc(C(=O)N3c4ccc(F)cc4OC[C@@H]3CCO)cc2N1	25.1 µM
C[C@H]1COc2cc(F)ccc2N1C(=O)c1ccc2c(c1)NC(=O)CO2	25.1 µM
CC(C)C[C@H]1COc2cc(F)ccc2N1C(=O)c1ccc2c(c1)NC(=O)CO2	2.51 µM
O=C(O)C[C@H]1COc2cc(Cl)ccc2N1C(=O)c1ccc2c(c1)NC(=O)CO2	> 50.1 µM
O=C1COc2ccc(C(=O)N3c4ccc(Cl)cc4C[C@@H]3CCO)cc2N1	> 50.1 µM
C[C@H]1CCc2cc(F)ccc2N1C(=O)c1ccc2c(c1)NC(=O)CO2	> 50.1 µM
CC(C)C[C@H]1COc2cc(F)ccc2N1C(=O)c1ccc2c(c1)NC(=O)CC2	> 50.1 µM
NCC[C@H]1COc2cc(F)ccc2N1C(=O)c1ccc2c(c1)NC(=O)CO2	> 50.1 µM

---

measurementDescription: Terminal half life in Han Wistar rat at 1 to 1.2 mg/kg, iv by LC-MS/MS analysis
Format: ADME, organism-based
conditionLabel: in vivo, read-out: beta t1/2 (converted)

smilesData	outputUnit	half-life
CNC(=O)C[C@H]1COc2cc(F)ccc2N1C(=O)c1ccc2c(c1)NC(=O)CO2	min	28.8

---

measurementDescription: Terminal half life in Han Wistar rat at 1.2 mg/kg, iv by LC-MS/MS analysis
Format: ADME, organism-based
conditionLabel: in vivo, read-out: beta t1/2 (converted)
quantityMeasured: half-life (min)

compound	quantityMeasured	value
CNC(=O)C[C@H]1COc2ccc(Cl)cc2N1C(=O)c1ccc2c(c1)NC(=O)CO2	half-life	18
NC(=O)C[C@H]1COc2cc(F)cc(F)c2N1C(=O)c1ccc2c(c1)NC(=O)CO2	half-life	24.6
NS(=O)(=O)C[C@H]1COc2cc(F)ccc2N1C(=O)c1ccc2c(c1)NC(=O)CO2	half-life	40.8
CNC(=O)C[C@H]1COc2cc(Cl)ccc2N1C(=O)c1ccc2c(c1)NC(=O)CO2	half-life	25.8
COC(=O)[C@@H]1CC2=CC(=O)CC[C@]2(C)[C@@]23O[C@@H]2C[C@@]2(C)[C@@H](CC[C@@]24CCC(=O)O4)[C@H]13 [EPLERENONE]	half-life	78

---

The entries below come with measured Ki values attached.
testTarget: Glucocorticoid receptor (Homo sapiens, UniProt P04150)
Sequence (P04150 whole entry): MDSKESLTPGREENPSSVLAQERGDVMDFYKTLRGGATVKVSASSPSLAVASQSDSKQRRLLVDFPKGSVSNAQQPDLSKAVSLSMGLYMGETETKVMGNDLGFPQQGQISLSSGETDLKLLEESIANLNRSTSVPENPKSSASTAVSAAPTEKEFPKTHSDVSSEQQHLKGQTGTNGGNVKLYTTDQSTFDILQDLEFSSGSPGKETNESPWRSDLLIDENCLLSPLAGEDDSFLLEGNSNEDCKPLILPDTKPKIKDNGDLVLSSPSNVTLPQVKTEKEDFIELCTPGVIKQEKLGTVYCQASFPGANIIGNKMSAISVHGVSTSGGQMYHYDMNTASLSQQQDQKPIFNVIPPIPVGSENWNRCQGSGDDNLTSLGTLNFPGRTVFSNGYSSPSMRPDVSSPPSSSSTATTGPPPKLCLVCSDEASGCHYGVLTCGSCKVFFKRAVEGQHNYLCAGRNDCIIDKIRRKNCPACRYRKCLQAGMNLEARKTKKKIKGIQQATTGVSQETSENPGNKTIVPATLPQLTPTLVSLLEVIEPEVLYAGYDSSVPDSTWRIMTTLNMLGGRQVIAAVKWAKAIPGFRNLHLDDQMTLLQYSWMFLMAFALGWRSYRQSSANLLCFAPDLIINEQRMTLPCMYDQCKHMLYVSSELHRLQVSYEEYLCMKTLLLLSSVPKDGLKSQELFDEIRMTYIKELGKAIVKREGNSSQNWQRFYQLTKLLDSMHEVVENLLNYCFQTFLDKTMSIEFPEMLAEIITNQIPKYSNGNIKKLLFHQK

smilesData	testTarget	limitOperator	Ki / nM
CNC(=O)C[C@H]1COc2cc(C)ccc2N1C(=O)c1ccc2c(c1)NC(=O)CO2	Glucocorticoid receptor (Homo sapiens, UniProt P04150)	=	316
NC(=O)C[C@H]1COc2cc(F)ccc2N1C(=O)c1ccc2c(c1)NC(=O)CO2	Glucocorticoid receptor (Homo sapiens, UniProt P04150)	=	631
Cc1ccc2c(c1)OC[C@](C)(CS(C)(=O)=O)N2C(=O)c1ccc2c(c1)NC(=O)CO2	Glucocorticoid receptor (Homo sapiens, UniProt P04150)	=	1000
CS(=O)(=O)C[C@H]1COc2cc(F)ccc2N1C(=O)c1ccc2c(c1)NC(=O)CO2	Glucocorticoid receptor (Homo sapiens, UniProt P04150)	=	20
NCC[C@H]1COc2cc(F)ccc2N1C(=O)c1ccc2c(c1)NC(=O)CO2	Glucocorticoid receptor (Homo sapiens, UniProt P04150)	>	15800
CNC(=O)C[C@H]1COc2cc(C(F)(F)F)ccc2N1C(=O)c1ccc2c(c1)NC(=O)CO2	Glucocorticoid receptor (Homo sapiens, UniProt P04150)	=	398
O=C(O)C[C@H]1COc2cc(Cl)ccc2N1C(=O)c1ccc2c(c1)NC(=O)CO2	Glucocorticoid receptor (Homo sapiens, UniProt P04150)	=	5010
CC(C)C[C@H]1COc2cc(F)ccc2N1C(=O)c1ccc2c(c1)NC(=O)CC2	Glucocorticoid receptor (Homo sapiens, UniProt P04150)	=	12600
NS(=O)(=O)C[C@H]1COc2cc(F)ccc2N1C(=O)c1ccc2c(c1)NC(=O)CO2	Glucocorticoid receptor (Homo sapiens, UniProt P04150)	=	251
CNC(=O)C[C@H]1COc2ccccc2N1C(=O)c1ccc2c(c1)NC(=O)CO2	Glucocorticoid receptor (Homo sapiens, UniProt P04150)	=	3160
O=C1COc2ccc(C(=O)N3c4cc(CC5CCCCC5)c(F)cc4OC[C@@H]3CCO)cc2N1	Glucocorticoid receptor (Homo sapiens, UniProt P04150)	=	200
C[C@H]1CCc2cc(F)ccc2N1C(=O)c1ccc2c(c1)NC(=O)CO2	Glucocorticoid receptor (Homo sapiens, UniProt P04150)	=	2000
C[C@H]1COc2cccnc2N1C(=O)c1ccc2c(c1)NC(=O)CO2	Glucocorticoid receptor (Homo sapiens, UniProt P04150)	>	15800
CNC(=O)C[C@H]1COc2cc(F)c(CC(C)C)cc2N1C(=O)c1ccnc(NC(N)=O)c1	Glucocorticoid receptor (Homo sapiens, UniProt P04150)	=	126
CC(C)Cc1cc2c(cc1Cl)OC[C@H](CC(N)=O)N2C(=O)c1ccc2c(c1)NC(=O)CO2	Glucocorticoid receptor (Homo sapiens, UniProt P04150)	=	1.26
CNC(=O)C[C@H]1COc2cc(Cl)cc(C)c2N1C(=O)c1ccc2c(c1)NC(=O)CO2	Glucocorticoid receptor (Homo sapiens, UniProt P04150)	>	12600
O=C1COc2ccc(C(=O)N3c4ccc(Cl)cc4C[C@@H]3CCO)cc2N1	Glucocorticoid receptor (Homo sapiens, UniProt P04150)	>	15800
NS(=O)(=O)C[C@H]1COc2cc(F)ccc2N1C(=O)c1ccc2cc[nH]c2c1	Glucocorticoid receptor (Homo sapiens, UniProt P04150)	=	631
